- measured on: TRIM33(PHD,BRD) (Homo sapiens, UniProt Q9UPN9)
- Sequence (Q9UPN9 882-1087 limits assumed): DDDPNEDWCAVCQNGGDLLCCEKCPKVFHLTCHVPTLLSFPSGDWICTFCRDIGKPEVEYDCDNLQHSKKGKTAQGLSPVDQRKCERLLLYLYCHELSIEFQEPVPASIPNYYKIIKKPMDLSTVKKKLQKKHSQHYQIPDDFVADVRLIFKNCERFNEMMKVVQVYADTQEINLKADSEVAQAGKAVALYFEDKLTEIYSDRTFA
- assay overview: BROMOscan ligand-binding assay
- measurement conditions: read-out: KD (BROMOscan); sheet prints no unit (nM)
property name: Kd

structure string	observed
Cc1noc(C)c1-c1ccc2c(c1)nc(CCc1ccccc1)n2CCN1CCOCC1	> 30000 nM
COc1ccc(CCc2nc3cc(-c4c(C)noc4C)ccc3n2CCN2CCOCC2)cc1	> 30000 nM
